Origin of the recorded values: ChEMBL document CHEMBL1129643

- Tested System: D(2) dopamine receptor (Rattus norvegicus)
- Test Summary: Binding affinity to dopamine receptor D2 using a [3H]-spiperone binding assay in rat cortical membranes
- Type: cell membranes
pIC50: −log10 of the molar value.
Endpoint Label: pIC50

Smiles Data: CN(CCCCN1CCNC1=O)Cc1cn(-c2ccc(F)cc2)c2ccc(Cl)cc12
Endpoint Label: pIC50
Endpoint Result: 7.70

Smiles Data: CC(C)N1CCN(CCN(C)CCc2cn(-c3ccc(F)cc3)c3cc(Cl)ccc23)C1=O
Endpoint Label: pIC50
Endpoint Result: 6.72

Smiles Data: CN(C)CCc1cn(-c2ccc(F)cc2)c2cc(Cl)ccc12
Endpoint Label: pIC50
Endpoint Result: 6.19

A: CN1CCN(CCOc2cn(-c3ccc(F)cc3)c3ccc(Cl)cc23)CC1
B: CN(C)CCCCc1cn(-c2ccc(F)cc2)c2ccc(Cl)cc12
Lowest pIC50? choose A or B Give the label under which the chosen entry appears.
B

---

- Tested System: UniProt:P14842
- Test Summary: Binding affinity to serotonin 5-hydroxytryptamine 2A receptors using a radioligand [3H]ketanserin binding assay in rat cortical membranes
pIC50: −log10 of the molar value.
Endpoint Label: pIC50

Molecule: CN(C)CCSc1cn(-c2ccc(F)cc2)c2ccc(Cl)cc12
Endpoint Result: 7.38

1: CN(CCc1cn(-c2ccc(F)cc2)c2cc(Cl)ccc12)CCN1CCNC1=O
2: CNc1cc(OC)c(C(=O)N[C@H]2CCN(Cc3ccccc3)[C@H]2C)cc1Cl [NEMONAPRIDE]
For the two items 1 and 2 , which reports the higher pIC50 value? Give the label under which the chosen entry appears.
1

---

- System: Rattus norvegicus
- Test Summary: Effective dose was measured to inhibit 50% of quipazine induced head twitches in rat after 24 hr r of subcutaneous administration
- Type: functional
- Test Context: sc
Endpoint Label: ED50 (µmol/kg)
Please reply with the bare figure in µmol/kg and do not write the unit itself.

Solved entries:
Smiles Data: CN(CCCN1CCNC1=O)CCc1cn(-c2ccc(F)cc2)c2cc(Cl)ccc12
Endpoint Result: 8.5
//
Smiles Data: Cc1nc2sccn2c(=O)c1CCN1CCC(=C(c2ccc(F)cc2)c2ccc(F)cc2)CC1
Endpoint Result: 0.98
//
Smiles Data: O=C1NCCN1CCN1CCC(c2cn(-c3ccc(F)cc3)c3ccc(Cl)cc23)CC1
Endpoint Result: 0.03

Let us examine a further case.
Returns the measured ED50 for the input molecule. Input: CC(C)N1CCN(CCN2CCC(c3cn(-c4ccc(F)cc4)c4cc(Cl)ccc34)CC2)C1=O
0.052

---

- Tested System: Alpha-1A adrenergic receptor (Rattus norvegicus, UniProt P43140)
- Test Summary: Binding affinity to the alpha-1 adrenergic receptor using a radioligand [3H]prazosin binding assay in rat brain membranes
- Type: cell membranes
Endpoint Label: IC50 (nM)

Solved entries:
Smiles Data: CN(CCOc1cn(-c2ccc(F)cc2)c2ccc(Cl)cc12)CCN1CCNC1=O
Endpoint Label: IC50
Endpoint Result: 5.7
//
Smiles Data: CN(CCN1CCNC1=O)Cc1cn(-c2ccc(F)cc2)c2ccc(Cl)cc12
Endpoint Label: IC50
Endpoint Result: 23
//
Smiles Data: CN(CCc1cn(-c2ccc(F)cc2)c2cc(Cl)ccc12)CCN1CCNC1=O
Endpoint Label: IC50
Endpoint Result: 14
//
Smiles Data: CN(C)CCc1cn(-c2ccc(F)cc2)c2ccc(Cl)cc12
Endpoint Label: IC50
Endpoint Result: 40

1: CN(C)CCSc1cn(-c2ccc(F)cc2)c2ccc(Cl)cc12
2: CN(C)CCCc1cn(-c2ccc(F)cc2)c2ccc(Cl)cc12
Lowest IC50? choose 1 or 2 Give the label under which the chosen entry appears.
2
(2: 73 nM, 1: 820 nM)

---

- Tested System: Alpha-1A adrenergic receptor (Rattus norvegicus)
- Test Summary: Binding affinity to the alpha-1 adrenergic receptor using a radioligand [3H]prazosin binding assay in rat brain membranes
Endpoint Label: IC50 (nM)

Solved entries:
Smiles Data: Fc1ccc(-n2cc(OCCN3CCCCC3)c3cc(Cl)ccc32)cc1
Unit Abbrev: nM
IC50: 32
//
Smiles Data: Fc1ccc(-n2cc(OCCN3CCOCC3)c3cc(Cl)ccc32)cc1
Unit Abbrev: nM
IC50: 110

I: C#CCN(CCOc1cn(-c2ccc(F)cc2)c2ccc(Cl)cc12)CCN1CCNC1=O
II: CN(C)CCOc1cn(-c2ccc(F)cc2)c2ccc(Cl)cc12
For the two items I and II , which reports the higher IC50 value? Give the label under which the chosen entry appears.
I
(I: 88 nM, II: 17 nM)

---

- Tested System: Alpha-1A adrenergic receptor (Rattus norvegicus)
- Sequence (P43140 whole entry): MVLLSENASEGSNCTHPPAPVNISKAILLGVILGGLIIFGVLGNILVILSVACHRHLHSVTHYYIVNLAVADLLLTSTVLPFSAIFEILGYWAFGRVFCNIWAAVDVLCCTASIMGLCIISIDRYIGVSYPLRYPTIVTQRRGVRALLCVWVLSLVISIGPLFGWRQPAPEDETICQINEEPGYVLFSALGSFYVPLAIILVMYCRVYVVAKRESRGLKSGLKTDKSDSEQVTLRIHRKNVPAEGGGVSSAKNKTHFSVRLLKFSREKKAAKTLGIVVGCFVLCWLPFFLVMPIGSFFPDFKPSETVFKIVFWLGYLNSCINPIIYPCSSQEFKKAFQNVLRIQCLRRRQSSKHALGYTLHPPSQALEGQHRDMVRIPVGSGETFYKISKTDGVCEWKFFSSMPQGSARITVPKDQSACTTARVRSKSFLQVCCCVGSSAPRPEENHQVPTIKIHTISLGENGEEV
- Test Summary: Binding affinity to the alpha-1 adrenergic receptor using a radioligand [3H]prazosin binding assay in rat brain membranes
pIC50: −log10 of the molar value.
Endpoint Label: pIC50

Solved entries:
Smiles Data: CN(CCc1cn(-c2ccc(F)cc2)c2ccc(Cl)cc12)CCN1CCNC1=O
Endpoint Result: 7.82
//
Smiles Data: CN(CCCN1CCNC1=O)CCc1cn(-c2ccc(F)cc2)c2ccc(Cl)cc12
Endpoint Result: 7.85

P: CN(C)CCCCc1cn(-c2ccc(F)cc2)c2ccc(Cl)cc12
Q: CCN(CCOc1cn(-c2ccc(F)cc2)c2ccc(Cl)cc12)CCN1CCNC1=O
R: CN(C)CCOc1cn(-c2ccc(F)cc2)c2cc(Cl)ccc12
S: CC(C)N1CCN(CCN(C)CCOc2cn(-c3ccc(F)cc3)c3cc(Cl)ccc23)C1=O
T: CN(CCCc1cn(-c2ccc(F)cc2)c2ccc(Cl)cc12)CCN1CCNC1=O
Order the records by pIC50, with each subsequent value no larger than the one before. List the labels in the requested order.
Q, T, R, P, S
(Q: 7.92, T: 7.37, R: 6.77, P: 6.51, S: 6.22)

---

- Tested System: D(2) dopamine receptor (Rattus norvegicus, UniProt P61169)
- Sequence (P61169 whole entry): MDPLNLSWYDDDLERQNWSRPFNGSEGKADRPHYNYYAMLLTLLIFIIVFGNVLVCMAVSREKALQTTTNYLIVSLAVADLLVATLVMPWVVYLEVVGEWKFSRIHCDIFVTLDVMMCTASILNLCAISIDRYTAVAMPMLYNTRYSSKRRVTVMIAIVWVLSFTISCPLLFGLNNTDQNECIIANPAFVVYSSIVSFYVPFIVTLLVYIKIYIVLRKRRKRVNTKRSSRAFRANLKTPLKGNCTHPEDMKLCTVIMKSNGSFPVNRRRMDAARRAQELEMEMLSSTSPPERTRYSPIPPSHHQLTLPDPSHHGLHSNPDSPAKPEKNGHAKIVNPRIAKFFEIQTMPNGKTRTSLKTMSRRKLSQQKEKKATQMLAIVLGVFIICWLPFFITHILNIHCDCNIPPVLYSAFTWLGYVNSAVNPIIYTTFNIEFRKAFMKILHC
- Test Summary: Binding affinity to dopamine receptor D2 using a [3H]-spiperone binding assay in rat cortical membranes
pIC50: −log10 of the molar value.
Endpoint Label: pIC50

Smiles Data: CN(CCc1cn(-c2ccc(F)cc2)c2cc(Cl)ccc12)CCN1CCNC1=O
pIC50: 6.23

A: CN(CCSc1cn(-c2ccc(F)cc2)c2ccc(Cl)cc12)CCN1CCNC1=O
B: CN(C)CCCOc1cn(-c2ccc(F)cc2)c2ccc(Cl)cc12
C: CN(CCCN1CCNC1=O)CCc1cn(-c2ccc(F)cc2)c2cc(Cl)ccc12
Order the records by pIC50, with each subsequent value no larger than the one before. List the labels in the requested order.
B, C, A
(B: 7.62, C: 6.40, A: 6.10)

---

- Tested System: Alpha-1A adrenergic receptor (Rattus norvegicus, UniProt P43140)
- Test Summary: Binding affinity to the alpha-1 adrenergic receptor using a radioligand [3H]prazosin binding assay in rat brain membranes
Endpoint Label: IC50 (nM)

Smiles Data: CN(CCSc1cn(-c2ccc(F)cc2)c2ccc(Cl)cc12)CCN1CCNC1=O
Endpoint Result: 650

A: CN(CCCN1CCNC1=O)CCc1cn(-c2ccc(F)cc2)c2cc(Cl)ccc12
B: CC(C)N1CCN(CCN(C)CCc2cn(-c3ccc(F)cc3)c3cc(Cl)ccc23)C1=O
C: CN1CCN(CCOc2cn(-c3ccc(F)cc3)c3ccc(Cl)cc23)CC1
Arrange the 3 compounds by rising IC50, starting with the smallest. List the labels in the requested order.
A, C, B
(A: 54 nM, C: 150 nM, B: 400 nM)

---

- Tested System: 5-hydroxytryptamine receptor 2A (Rattus norvegicus, UniProt P14842)
- Sequence (P14842 whole entry): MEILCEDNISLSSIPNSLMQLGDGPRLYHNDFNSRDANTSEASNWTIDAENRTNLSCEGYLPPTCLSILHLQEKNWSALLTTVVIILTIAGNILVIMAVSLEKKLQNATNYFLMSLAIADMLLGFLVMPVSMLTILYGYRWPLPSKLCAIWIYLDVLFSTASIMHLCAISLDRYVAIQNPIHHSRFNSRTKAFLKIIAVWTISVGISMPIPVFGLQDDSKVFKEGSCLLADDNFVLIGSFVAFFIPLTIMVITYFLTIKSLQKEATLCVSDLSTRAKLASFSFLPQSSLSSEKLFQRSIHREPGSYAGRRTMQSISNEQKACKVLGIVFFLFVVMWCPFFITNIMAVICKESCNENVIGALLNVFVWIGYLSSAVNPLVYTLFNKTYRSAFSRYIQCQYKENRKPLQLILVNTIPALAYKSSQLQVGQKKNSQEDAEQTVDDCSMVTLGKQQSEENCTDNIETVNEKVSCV
- Test Summary: Binding affinity to serotonin 5-hydroxytryptamine 2A receptors using a radioligand [3H]ketanserin binding assay in rat cortical membranes
- Assay type: cell membranes
pIC50: −log10 of the molar value.
Endpoint Label: pIC50

Solved entries:
Smiles Data: CN(CCCCN1CCNC1=O)Cc1cn(-c2ccc(F)cc2)c2ccc(Cl)cc12
Endpoint Result: 6.96

Smiles Data: CN(C)CCCCc1cn(-c2ccc(F)cc2)c2ccc(Cl)cc12
Endpoint Result: 7.00

Smiles Data: CN(C)CCc1cn(-c2ccc(F)cc2)c2cc(Cl)ccc12
Endpoint Result: 8.26

1: CN1CCN(CCOc2cn(-c3ccc(F)cc3)c3ccc(Cl)cc23)CC1
2: CN(CCCN1CCNC1=O)CCc1cn(-c2ccc(F)cc2)c2cc(Cl)ccc12
3: CN(C)CCCOc1cn(-c2ccc(F)cc2)c2ccc(Cl)cc12
4: CC(C)N1CCN(CCN(C)CCc2cn(-c3ccc(F)cc3)c3cc(Cl)ccc23)C1=O
Order the records by pIC50, with each subsequent value no larger than the one before. List the labels in the requested order.
2, 4, 3, 1
(2: 8.72, 4: 8.24, 3: 7.57, 1: 7.00)
